The measured values listed here are drawn from patent US8710233B2.

Each entry below carries its recorded inhibition at 10 µM.
# Target: VR1/TRPV1 receptor (Homo sapiens, UniProt Q8NER1)
# Sequence (Q8NER1 whole entry): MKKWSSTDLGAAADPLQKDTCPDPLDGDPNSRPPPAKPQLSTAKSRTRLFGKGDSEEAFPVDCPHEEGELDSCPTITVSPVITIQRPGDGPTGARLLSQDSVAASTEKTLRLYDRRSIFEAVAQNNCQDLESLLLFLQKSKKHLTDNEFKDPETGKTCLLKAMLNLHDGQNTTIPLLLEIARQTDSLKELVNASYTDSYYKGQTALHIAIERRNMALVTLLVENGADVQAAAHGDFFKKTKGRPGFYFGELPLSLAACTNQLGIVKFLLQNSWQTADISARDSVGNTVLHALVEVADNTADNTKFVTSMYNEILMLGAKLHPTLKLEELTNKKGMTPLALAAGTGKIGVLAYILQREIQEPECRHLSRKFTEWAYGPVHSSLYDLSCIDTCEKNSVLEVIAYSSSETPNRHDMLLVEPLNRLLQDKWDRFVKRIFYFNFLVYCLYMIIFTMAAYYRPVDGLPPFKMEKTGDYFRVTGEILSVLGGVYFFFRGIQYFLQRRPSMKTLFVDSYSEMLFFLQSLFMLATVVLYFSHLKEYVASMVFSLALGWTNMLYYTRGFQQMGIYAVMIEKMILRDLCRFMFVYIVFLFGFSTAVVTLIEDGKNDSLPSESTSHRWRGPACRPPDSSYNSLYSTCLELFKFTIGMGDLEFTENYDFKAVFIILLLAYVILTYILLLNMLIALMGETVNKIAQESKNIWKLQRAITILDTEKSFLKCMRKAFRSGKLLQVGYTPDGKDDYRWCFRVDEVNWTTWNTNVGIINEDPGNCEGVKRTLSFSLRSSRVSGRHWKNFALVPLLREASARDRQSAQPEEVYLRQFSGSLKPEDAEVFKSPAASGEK
# Protocol Description: IC50 (human) after pH stimulus
# Format: cell-based
# Condition Parameters: @ 10 μM; read-out: inhibition in percent, IC50 (human) after pH stimulus
Could you give me the number in %? Just the number is fine.

# example entries with known answers
compound="CC(C(=O)NCc1ccc(C(F)(F)F)cc1N1CCN(C2CCCCC2)CC1)c1ccc(NS(C)(=O)=O)c(F)c1 (stereo not drawn)" readout_kind="inhibition at 10 µM" quantitative_result=54
compound="COc1ccc(-c2nc(C(F)(F)F)ccc2CNC(=O)C(C)c2ccc(NS(C)(=O)=O)c(F)c2)cc1OC (stereo not drawn)" readout_kind="inhibition at 10 µM" quantitative_result=66

# next compound below
Prompt: # query: inhibition at 10 µM of entry CC(C(=O)NCc1ccc(C(F)(F)F)nc1N1CCS(=O)(=O)CC1)c1ccc(NS(C)(=O)=O)c(F)c1 (stereo not drawn)
Response: 31
